Documented inhibition across a set of molecules
SYSTEM NAME: Proteasome subunit beta type-9 (Homo sapiens) (UniProt P28065)
PROCEDURE TEXT: Inhibition of human 20S immunoproteasome beta-1 at 50 uM using Ac-PAL-AMC as substrate incubated for 15 mins measured for 45 mins by fluorescence assay relative to control

{"columns": ["SMILES NOTATION", "SYSTEM NAME", "PROPERTY MEASURED", "MEAS VALUE"],
 "data": [
  ["C[C@H](NC(=O)[C@H](Cc1ccc(OCc2ccccc2)cc1)NC(=O)OC(C)(C)C)C(=O)N[C@@H](C[C@]1(O)C(=O)Nc2ccccc21)C(=O)NCCC1CCCCC1", "Proteasome subunit beta type-9 (Homo sapiens) (UniProt P28065)", "inhibition", "> 85%"]
]}

Field request: inhibition | item: C[C@H](NC(=O)[C@@H](N)Cc1ccc(OCc2ccccc2)cc1)C(=O)N[C@@H](C[C@]1(O)C(=O)Nc2ccccc21)C(=O)NCc1ccccc1 > 85%

And then NCCCC[C@H](NC(=O)[C@@H](N)Cc1ccc(OCc2ccccc2)cc1)C(=O)N[C@@H](C[C@]1(O)C(=O)Nc2ccccc21)C(=O)NCc1ccccc1 , what is it? > 85%

Follow-up item: C[C@H](NC(=O)[C@H](Cc1ccc(O)cc1)NC(=O)OC(C)(C)C)C(=O)N[C@@H](C[C@]1(O)C(=O)Nc2ccccc21)C(=O)NCc1ccccc1 12%

Please give the result for C[C@H](NC(=O)c1ccc(OCc2ccccc2)cc1)C(=O)N[C@@H](C[C@]1(O)C(=O)Nc2ccccc21)C(=O)NCc1ccccc1 too. > 85%

And what about the molecule C[C@H](NC(=O)Cc1cccc(Oc2ccccc2)c1)C(=O)N[C@@H](C[C@]1(O)C(=O)Nc2ccccc21)C(=O)NCc1ccccc1 ? > 85%

* * *

# inhibition listing for each entry below
SYSTEM NAME: Proteasome subunit beta type-9 (Homo sapiens)
Sequence (whole entry): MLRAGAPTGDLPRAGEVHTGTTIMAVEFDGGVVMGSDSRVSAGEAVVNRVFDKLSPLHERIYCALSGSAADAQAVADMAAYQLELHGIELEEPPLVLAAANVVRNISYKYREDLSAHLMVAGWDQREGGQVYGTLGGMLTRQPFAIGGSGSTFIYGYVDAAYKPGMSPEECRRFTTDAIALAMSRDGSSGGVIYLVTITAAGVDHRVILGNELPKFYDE
PROCEDURE TEXT: Inhibition of human 20S immunoproteasome beta-1 at 50 uM using Ac-PAL-AMC as substrate incubated for 15 mins measured for 45 mins by fluorescence assay relative to control

As a guide, the following entries are already answered.
{"columns": ["SMILES NOTATION", "PROPERTY MEASURED", "MEAS VALUE"],
 "data": [
  ["C[C@H](NC(=O)[C@H](Cc1ccc(OCc2ccccc2)cc1)NC(=O)OC(C)(C)C)C(=O)N[C@@H](C[C@@]1(O)C(=O)N(C)c2ccccc21)C(=O)NCc1ccccc1", "inhibition", "> 85%"],
  ["C[C@H](O)[C@@H](NC(=O)OCc1ccccc1)C(=O)N[C@@H](C[C@]1(O)C(=O)Nc2ccccc21)C(=O)NCc1ccccc1", "inhibition", "> 85%"]
]}

Please give the measured inhibition for this compound: C[C@@H](O)[C@@H](NC(=O)c1ccc(OCc2ccccc2)cc1)C(=O)N[C@@H](C[C@]1(O)C(=O)Nc2ccccc21)C(=O)NCc1ccccc1 > 85%

And what about the compound C[C@H](NC(=O)[C@H](Cc1ccc(OCc2ccccc2)cc1)NC(=O)OC(C)(C)C)C(=O)N[C@@H](C[C@]1(O)C(=O)Nc2ccccc21)C(=O)NC(c1ccccc1)c1ccccc1 ? > 85%

CNC(=O)[C@H](C[C@]1(O)C(=O)Nc2ccccc21)NC(=O)[C@H](C)NC(=O)[C@H](Cc1ccc(OCc2ccccc2)cc1)NC(=O)OC(C)(C)C ? 13%

Again, but for C[C@H](NC(=O)[C@H](Cc1ccc(OCc2ccccc2)cc1)NC(=O)OC(C)(C)C)C(=O)N[C@@H](C[C@]1(O)C(=O)Nc2ccccc21)C(=O)NCC(C)(C)C > 85%

Same thing, different compound: COC(=O)CCNC(=O)[C@H](C[C@]1(O)C(=O)Nc2ccccc21)NC(=O)[C@H](C)NC(=O)[C@H](Cc1ccc(OCc2ccccc2)cc1)NC(=O)OC(C)(C)C 17%

Now this one: C[C@H](NC(=O)[C@H](Cc1ccc(OCc2ccccc2)cc1)NC(=O)OC(C)(C)C)C(=O)N[C@@H](C[C@]1(O)C(=O)Nc2ccccc21)C(=O)NCC1CCCCC1 > 85%
